Molecular target: Vitamin D3 receptor (Homo sapiens) (UniProt P11473)
Sequence (P11473 whole entry, looked up): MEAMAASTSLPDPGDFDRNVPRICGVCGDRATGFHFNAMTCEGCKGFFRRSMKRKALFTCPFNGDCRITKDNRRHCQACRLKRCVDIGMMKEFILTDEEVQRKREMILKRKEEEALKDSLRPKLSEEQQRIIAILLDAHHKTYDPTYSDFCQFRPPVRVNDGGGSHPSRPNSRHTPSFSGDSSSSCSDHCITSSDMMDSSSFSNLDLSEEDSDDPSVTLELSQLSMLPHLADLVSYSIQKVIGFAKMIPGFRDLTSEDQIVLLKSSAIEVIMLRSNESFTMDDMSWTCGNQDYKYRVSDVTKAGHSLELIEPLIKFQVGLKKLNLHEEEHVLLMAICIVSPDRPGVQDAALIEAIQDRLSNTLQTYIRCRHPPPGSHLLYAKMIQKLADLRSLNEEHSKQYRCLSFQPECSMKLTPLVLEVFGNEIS
Test: Inhibitors of the vitamin D receptor (VDR): qHTS; further: on the % scale 0 is the no-effect control and ±100 the full control effect
Details: VDR-SRC2-3 peptide fluorescence polarization, 2 h; hits give low values
Excerpt: The vitamin D receptor (VDR) is a ligand-activated transcription factor and is partially responsible for the regulation of the endocrine system. […] In a collaboration between the University of Wisconsin, Milwaukee and the NIH Chemical Genomics Center (NCGC) a HTS-compatible enzymatic assay was developed. The assay uses fluorescence polarization as its read-out to measure the inhibition between VDR and coregulator peptide SRC2-3 exerted by small molecules. […]
Among all 400,000 compounds or so, about 3,700 (0.93%) were called active. Inconclusive results (about 3%) are left out. Shown is part of a subset that was picked to be rich in actives.
Documented max response, negative = inhibition across a set of compounds
OUTCOME MEASURE: max response, negative = inhibition (%)

compound="OCC(CO)NC1C[C@](O)(CO)[C@@H](O)[C@H](O)[C@H]1O (stereo not given in full)" data_value=1.5
compound=Cc1oc(-c2ccccc2)nc1Cn1c(SCc2cccc(C(F)(F)F)c2)nc2cccnc21 data_value=2.78
compound=Cc1ccc(C)c(NC(=O)CSC2=Nc3ccccc3N=C(c3ccc(F)cc3)C2)c1 data_value=4.3
compound=N#Cc1c(-c2ccc(F)cc2)nc(-c2ccccc2)[nH]c1=O data_value=13.1
compound=O=C(c1cccnc1)N(Cc1ccccc1)C(=O)c1cccnc1 data_value=-6.19
compound=CCc1cc2c(cc3c(=O)n(CC(=O)NCc4cccc(Cl)c4)nc(CC)n32)s1 data_value=-17.2
compound="CCCCOc1ccc(C(=O)N2CC(=O)Nc3ccc(Br)cc3C2c2ccc(F)cc2)cc1 (stereo not given)" data_value=-9.94
compound="CCOc1cccc(CC(=O)N2CCc3c([nH]c4ccccc34)C2c2ccc(OC)cc2)c1OCC (stereo not given)" data_value=11.9
compound=COc1ccc(CCC(=O)NCc2ccc3c(c2)CCN3C(=O)c2ccc(F)cc2)cc1 data_value=1.51
compound=CC(C)c1ccc(S(=O)(=O)Nc2ccc(O)c(Sc3nc4ccccc4s3)c2)cc1 data_value=-4.7
compound="CCOC(=O)c1c(NC(=O)c2ccc(S(=O)(=O)N3CCCC(C)C3)cc2)sc2c1CCN(C(C)C)C2 (stereo not given)" data_value=21.6
compound=COc1ccc(N(C(=O)c2cccnc2)S(=O)(=O)c2ccc(OC)c(OC)c2)cc1 data_value=2.95
compound=CC(C)(C)c1ccc(S(=O)(=O)Nc2ccc(O)c(Sc3nc4ccccc4s3)c2)cc1 data_value=-10.5
compound=COc1ccc(NC(=O)c2cc3cc(C)ccc3n2C)cc1 data_value=8.19
compound=CCOc1ccc(N(CC)C(=O)c2noc3c2COc2ccc(C)cc2-3)cc1 data_value=8.55
compound=CCOc1ccc(C(=O)N2CCN(CCc3ccccn3)CC2)cc1 data_value=-7.3
compound=O=c1[nH]c(SCc2cccc(F)c2)nc2ccccc12 data_value=-6.23
compound="C[C@]12CC[C@@H]3c4ccc(O)cc4C[C@@H](CCCCCCCCCS(=O)CCCC(F)(F)C(F)(F)F)C3[C@@H]1CC[C@@H]2O (stereo not given in full)" data_value=-2.01
compound="COc1ccc(Br)cc1C1C2C=CCC(C)C2C(=O)N1Cc1ccccc1 (stereo not given)" data_value=-6.47
compound=CCc1ccccc1NC(=O)c1sc2nc3c(cc2c1N)CN(Cc1ccccc1)CC3 data_value=-9.37
